# experiment summary: Biodistribution studies in BALB/c mice
# Assay type: in vivo
# setup conditions: female, mouse, iv, total radioactivity; Stomach, 30 min p.i., healthy BALB/c mice, 0.1 nmol i.v.; read-out: Biodistribution data, Stomach
metric name: tissue uptake at 0.5 h (%ID/g)
Give a bare numeral; the unit %ID/g is implied.

I'd like to know its tissue uptake at 0.5 h. The compound in question is NC(=O)CNC(=O)CNC(=O)[C@H](CCCCNC(=O)CCCCc1cn(C2O[C@H](CO)[C@H](O)[C@H](O)[C@H]2O)nn1)NC(=O)CNC(=O)CNC(=O)[C@H](CCCCNC(=O)CCCCc1cn(C2O[C@H](CO)[C@H](O)[C@H](O)[C@H]2O)nn1)NC(=O)CNC(=O)CNC(=O)[C@H](CCCCNC(=O)CCCCc1cn(C2O[C@H](CO)[C@H](O)[C@H](O)[C@H]2O)nn1)NC(=O)CCCNC(=O)CC[C@H](C(=O)O)N1CCN(CC(=O)O)CCN(CC(=O)O)CC1 (stereo partly shown) [[68Ga]Ga-TriLysan, metal not drawn]
0.88

====

# experiment summary: Protein binding in human serum (MicroSpin G-50 columns)
# Assay type: in vitro ADME
# setup conditions: fresh human serum, 37 °C, 2 min, n=3
metric name: fraction unbound at 2 min, 5 MBq/mL

I'd like to know its fraction unbound at 2 min, 5 MBq/mL. The compound in question is NC(=O)CNC(=O)CNC(=O)[C@H](CCCCNC(=O)CCCCc1cn(C2O[C@H](CO)[C@H](O)[C@H](O)[C@H]2O)nn1)NC(=O)CNC(=O)CNC(=O)[C@H](CCCCNC(=O)CCCCc1cn(C2O[C@H](CO)[C@H](O)[C@H](O)[C@H]2O)nn1)NC(=O)CNC(=O)CNC(=O)[C@H](CCCCNC(=O)CCCCc1cn(C2O[C@H](CO)[C@H](O)[C@H](O)[C@H]2O)nn1)NC(=O)CCCNC(=O)CC[C@H](C(=O)O)N1CCN(CC(=O)O)CCN(CC(=O)O)CC1 (stereo partly shown) [[68Ga]Ga-TriLysan, metal not drawn]
0.82

====

# experiment summary: Biodistribution studies in BALB/c mice
# Assay type: in vivo
# setup conditions: female, mouse, iv, total radioactivity; Intestine, 30 min p.i., healthy BALB/c mice, 0.1 nmol i.v.; read-out: Biodistribution data, Intestine
metric name: tissue uptake at 0.5 h
Enter the number, and then the unit.

I'd like to know its tissue uptake at 0.5 h. The compound in question is NC(=O)CNC(=O)CNC(=O)[C@H](CCCCNC(=O)CCCCc1cn(C2O[C@H](CO)[C@H](O)[C@H](O)[C@H]2O)nn1)NC(=O)CNC(=O)CNC(=O)[C@H](CCCCNC(=O)CCCCc1cn(C2O[C@H](CO)[C@H](O)[C@H](O)[C@H]2O)nn1)NC(=O)CNC(=O)CNC(=O)[C@H](CCCCNC(=O)CCCCc1cn(C2O[C@H](CO)[C@H](O)[C@H](O)[C@H]2O)nn1)NC(=O)CCCNC(=O)CC[C@H](C(=O)O)N1CCN(CC(=O)O)CCN(CC(=O)O)CC1 (stereo partly shown) [[68Ga]Ga-TriLysan, metal not drawn]
1.13 %ID/g

====

# experiment summary: Biodistribution studies in BALB/c mice
# Type: in vivo
# setup conditions: female, mouse, iv, total radioactivity; Blood, 60 min p.i., healthy BALB/c mice, 0.1 nmol i.v.; read-out: Biodistribution data, Blood
metric name: tissue uptake at 1 h
Enter the number, and then the unit.

I'd like to know its tissue uptake at 1 h. The compound in question is NC(=O)CNC(=O)CNC(=O)[C@H](CCCCNC(=O)CCCCc1cn(C2O[C@H](CO)[C@H](O)[C@H](O)[C@H]2O)nn1)NC(=O)CNC(=O)CNC(=O)[C@H](CCCCNC(=O)CCCCc1cn(C2O[C@H](CO)[C@H](O)[C@H](O)[C@H]2O)nn1)NC(=O)CNC(=O)CNC(=O)[C@H](CCCCNC(=O)CCCCc1cn(C2O[C@H](CO)[C@H](O)[C@H](O)[C@H]2O)nn1)NC(=O)CCCNC(=O)CC[C@H](C(=O)O)N1CCN(CC(=O)O)CCN(CC(=O)O)CC1 (stereo partly shown) [[68Ga]Ga-TriLysan, metal not drawn]
0.27 %ID/g

Cited source for all entries: patent EP4640240A1
